biological target: PI3-kinase p110-alpha/p85-alpha (Homo sapiens) (UniProt P27986+P42336); assay: Inhibition of human PI3K p110alpha/p85alpha at 10 uM using phosphatidylinositol 4,5-bisphosphate as substrate after 30 mins by HTRF assay relative to control; type: protein-complex assay
ATTRIBUTE MEASURED: inhibition (%)

Answered examples (2):
>  <MOLECULE SMILES>
C[C@H]1COCCN1c1cc(-c2ccc(NC(=O)Nc3cccnc3)cc2)nn2ccnc12

>  <inhibition / %>
59

$$$$
>  <MOLECULE SMILES>
COc1ccc(-c2ccc3c(N4CCOC[C@@H]4C)nc(N4CCOC[C@@H]4C)nc3n2)cc1CO

>  <inhibition / %>
70

$$$$

1 = Oc1cccc(-c2nc(N3CCOCC3)c3oc4ncccc4c3n2)c1
2 = C[C@H]1COCCN1c1cc(-c2ccc(NC(=O)Nc3ccncc3)cc2)nn2ccnc12
*Q* Lowest inhibition? choose 1 or 2 Please indicate the selected item by its label.
*A* 2
(2: 64%, 1: 101%)

---

system: A549; test: Growth inhibition of human A549 cells at 20 uM after 72 hrs by SRB assay relative to control; assay type: functional; settings: A549, 72 h, read-out: GI
ATTRIBUTE MEASURED: inhibition of growth at 20 µM (%)
# value in %; strip the unit string

Consider the reported inhibition of growth at 20 µM for these compounds:
>  <MOLECULE SMILES>
C[C@H]1COCCN1c1cc(-c2ccc3[nH]ccc3c2)nn2c(C3CCN(C(=O)c4cccnc4)CC3)cnc12

>  <UNIT ANNOTATION>
%

>  <inhibition of growth at 20 µM>
57

$$$$
>  <MOLECULE SMILES>
C[C@H]1COCCN1c1cc(-c2cccc(CO)c2)nn2c(C3CCN(S(C)(=O)=O)CC3)cnc12

>  <UNIT ANNOTATION>
%

>  <inhibition of growth at 20 µM>
48.1

$$$$
>  <MOLECULE SMILES>
OCc1cccc(-c2cc(N3CCOCC3)c3ncc(C4CCN(Cc5cccnc5)CC4)n3n2)c1

>  <UNIT ANNOTATION>
%

>  <inhibition of growth at 20 µM>
30.2

$$$$

Now examine the next entry.
*Q* Form field: reported inhibition of growth at 20 µM of C[C@H]1COCCN1c1cc(-c2cnc(N)nc2)nn2c(C3CCN(S(C)(=O)=O)CC3)cnc12
*A* 39.5

---

molecular target: PI3-kinase p110-alpha/p85-alpha (Homo sapiens); experiment: Inhibition of human PI3K p110alpha/p85alpha using phosphatidylinositol 4,5-bisphosphate as substrate after 30 mins by HTRF assay
Sequence (P27986 whole entry): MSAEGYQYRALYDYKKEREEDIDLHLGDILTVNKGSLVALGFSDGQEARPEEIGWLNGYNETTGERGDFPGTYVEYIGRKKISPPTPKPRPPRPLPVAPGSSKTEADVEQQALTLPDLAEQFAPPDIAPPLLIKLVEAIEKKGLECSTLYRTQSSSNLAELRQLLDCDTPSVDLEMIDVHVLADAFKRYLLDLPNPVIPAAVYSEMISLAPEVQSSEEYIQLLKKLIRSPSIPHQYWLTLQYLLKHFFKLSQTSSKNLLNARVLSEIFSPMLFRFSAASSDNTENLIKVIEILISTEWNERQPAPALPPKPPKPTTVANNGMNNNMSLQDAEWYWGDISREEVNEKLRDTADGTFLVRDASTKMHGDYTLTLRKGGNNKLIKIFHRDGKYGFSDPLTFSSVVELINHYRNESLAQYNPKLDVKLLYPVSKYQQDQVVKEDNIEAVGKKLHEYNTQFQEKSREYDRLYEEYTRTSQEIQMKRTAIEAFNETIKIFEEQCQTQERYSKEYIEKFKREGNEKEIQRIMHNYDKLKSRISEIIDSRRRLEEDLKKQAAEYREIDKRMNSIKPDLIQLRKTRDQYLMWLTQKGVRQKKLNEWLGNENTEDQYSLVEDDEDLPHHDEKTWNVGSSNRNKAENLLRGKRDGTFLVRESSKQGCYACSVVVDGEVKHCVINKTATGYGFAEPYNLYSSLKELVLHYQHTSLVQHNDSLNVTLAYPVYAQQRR
Sequence (P42336 whole entry): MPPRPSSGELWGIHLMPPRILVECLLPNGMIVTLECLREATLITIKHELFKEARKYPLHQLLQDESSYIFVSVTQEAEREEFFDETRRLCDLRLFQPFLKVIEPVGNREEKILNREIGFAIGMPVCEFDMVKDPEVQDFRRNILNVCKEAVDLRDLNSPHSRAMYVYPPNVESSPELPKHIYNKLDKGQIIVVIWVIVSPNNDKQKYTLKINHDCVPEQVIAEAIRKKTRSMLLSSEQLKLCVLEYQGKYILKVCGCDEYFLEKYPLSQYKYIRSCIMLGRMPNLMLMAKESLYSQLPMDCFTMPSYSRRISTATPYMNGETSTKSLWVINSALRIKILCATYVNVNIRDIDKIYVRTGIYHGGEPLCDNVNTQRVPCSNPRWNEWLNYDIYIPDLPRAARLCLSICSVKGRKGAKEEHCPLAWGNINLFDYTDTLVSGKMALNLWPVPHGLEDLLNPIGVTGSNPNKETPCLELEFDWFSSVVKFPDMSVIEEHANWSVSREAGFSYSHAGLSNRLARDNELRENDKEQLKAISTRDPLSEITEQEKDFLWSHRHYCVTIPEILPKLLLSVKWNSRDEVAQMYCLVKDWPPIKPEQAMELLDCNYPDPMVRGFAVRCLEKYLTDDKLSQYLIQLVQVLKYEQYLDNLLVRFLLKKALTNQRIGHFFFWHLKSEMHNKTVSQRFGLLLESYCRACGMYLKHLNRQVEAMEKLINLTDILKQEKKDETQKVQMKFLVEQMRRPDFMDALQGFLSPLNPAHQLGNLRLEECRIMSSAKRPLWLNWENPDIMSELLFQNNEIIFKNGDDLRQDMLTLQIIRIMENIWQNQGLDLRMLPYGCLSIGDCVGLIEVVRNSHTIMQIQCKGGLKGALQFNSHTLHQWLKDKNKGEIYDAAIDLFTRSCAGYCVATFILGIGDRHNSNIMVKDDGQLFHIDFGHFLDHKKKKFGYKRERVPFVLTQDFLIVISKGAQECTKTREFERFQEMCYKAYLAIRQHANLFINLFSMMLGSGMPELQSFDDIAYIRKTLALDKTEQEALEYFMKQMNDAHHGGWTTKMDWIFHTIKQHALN
pIC50: −log10 of the molar value.
ATTRIBUTE MEASURED: pIC50

>  <MOLECULE SMILES>
C[C@H]1COCCN1c1cc(-c2ccc(NC(=O)Nc3cccnc3)cc2)nn2ccnc12

>  <pIC50>
5.35

$$$$

A = C[C@H]1COCCN1c1cc(-c2ccc(NC(=O)Nc3ccncc3)cc2)nn2ccnc12
B = COc1ccc(-c2ccc3c(N4CCOC[C@@H]4C)nc(N4CCOC[C@@H]4C)nc3n2)cc1CO
*Q* Returns the identifier with the smallest measured pIC50 among A and B . Kindly give the label for the entry you pick.
*A* B

---

target: Serine/threonine-protein kinase mTOR (Homo sapiens)
ATTRIBUTE MEASURED: pIC50
pIC50 is defined as minus the log10 of a concentration measured in mol/L.

*Q* Could you share which pIC50 value was measured for C[C@H]1COCCN1c1cc(-c2ccc(NC(=O)Nc3cccnc3)cc2)nn2ccnc12 ?
*A* 7.17
